assay: Aqueous solubility of compound at pH 7.4 by HPLC-MS/MS analysis; format: physicochemical; conditions: aqueous medium
The following molecules are shown together with reported solubility values.
Readout label: solubility (µM)

Smiles repr | Value measured
C[C@@H]1COCCN1c1nc(-c2cccc3[nH]ccc23)nc2c1CN(C(=O)c1cccc(S(C)(=O)=O)c1)C2(C)C | 15.4
C[C@@H]1COCCN1c1nc(-c2cccc3[nH]ccc23)nc2c1CN(C(=O)c1ccc3c(c1)OCO3)C2(C)C | 0.34

###

molecular target: Serine/threonine-protein kinase ATR (Homo sapiens, UniProt Q13535)
Sequence (Q13535 whole entry): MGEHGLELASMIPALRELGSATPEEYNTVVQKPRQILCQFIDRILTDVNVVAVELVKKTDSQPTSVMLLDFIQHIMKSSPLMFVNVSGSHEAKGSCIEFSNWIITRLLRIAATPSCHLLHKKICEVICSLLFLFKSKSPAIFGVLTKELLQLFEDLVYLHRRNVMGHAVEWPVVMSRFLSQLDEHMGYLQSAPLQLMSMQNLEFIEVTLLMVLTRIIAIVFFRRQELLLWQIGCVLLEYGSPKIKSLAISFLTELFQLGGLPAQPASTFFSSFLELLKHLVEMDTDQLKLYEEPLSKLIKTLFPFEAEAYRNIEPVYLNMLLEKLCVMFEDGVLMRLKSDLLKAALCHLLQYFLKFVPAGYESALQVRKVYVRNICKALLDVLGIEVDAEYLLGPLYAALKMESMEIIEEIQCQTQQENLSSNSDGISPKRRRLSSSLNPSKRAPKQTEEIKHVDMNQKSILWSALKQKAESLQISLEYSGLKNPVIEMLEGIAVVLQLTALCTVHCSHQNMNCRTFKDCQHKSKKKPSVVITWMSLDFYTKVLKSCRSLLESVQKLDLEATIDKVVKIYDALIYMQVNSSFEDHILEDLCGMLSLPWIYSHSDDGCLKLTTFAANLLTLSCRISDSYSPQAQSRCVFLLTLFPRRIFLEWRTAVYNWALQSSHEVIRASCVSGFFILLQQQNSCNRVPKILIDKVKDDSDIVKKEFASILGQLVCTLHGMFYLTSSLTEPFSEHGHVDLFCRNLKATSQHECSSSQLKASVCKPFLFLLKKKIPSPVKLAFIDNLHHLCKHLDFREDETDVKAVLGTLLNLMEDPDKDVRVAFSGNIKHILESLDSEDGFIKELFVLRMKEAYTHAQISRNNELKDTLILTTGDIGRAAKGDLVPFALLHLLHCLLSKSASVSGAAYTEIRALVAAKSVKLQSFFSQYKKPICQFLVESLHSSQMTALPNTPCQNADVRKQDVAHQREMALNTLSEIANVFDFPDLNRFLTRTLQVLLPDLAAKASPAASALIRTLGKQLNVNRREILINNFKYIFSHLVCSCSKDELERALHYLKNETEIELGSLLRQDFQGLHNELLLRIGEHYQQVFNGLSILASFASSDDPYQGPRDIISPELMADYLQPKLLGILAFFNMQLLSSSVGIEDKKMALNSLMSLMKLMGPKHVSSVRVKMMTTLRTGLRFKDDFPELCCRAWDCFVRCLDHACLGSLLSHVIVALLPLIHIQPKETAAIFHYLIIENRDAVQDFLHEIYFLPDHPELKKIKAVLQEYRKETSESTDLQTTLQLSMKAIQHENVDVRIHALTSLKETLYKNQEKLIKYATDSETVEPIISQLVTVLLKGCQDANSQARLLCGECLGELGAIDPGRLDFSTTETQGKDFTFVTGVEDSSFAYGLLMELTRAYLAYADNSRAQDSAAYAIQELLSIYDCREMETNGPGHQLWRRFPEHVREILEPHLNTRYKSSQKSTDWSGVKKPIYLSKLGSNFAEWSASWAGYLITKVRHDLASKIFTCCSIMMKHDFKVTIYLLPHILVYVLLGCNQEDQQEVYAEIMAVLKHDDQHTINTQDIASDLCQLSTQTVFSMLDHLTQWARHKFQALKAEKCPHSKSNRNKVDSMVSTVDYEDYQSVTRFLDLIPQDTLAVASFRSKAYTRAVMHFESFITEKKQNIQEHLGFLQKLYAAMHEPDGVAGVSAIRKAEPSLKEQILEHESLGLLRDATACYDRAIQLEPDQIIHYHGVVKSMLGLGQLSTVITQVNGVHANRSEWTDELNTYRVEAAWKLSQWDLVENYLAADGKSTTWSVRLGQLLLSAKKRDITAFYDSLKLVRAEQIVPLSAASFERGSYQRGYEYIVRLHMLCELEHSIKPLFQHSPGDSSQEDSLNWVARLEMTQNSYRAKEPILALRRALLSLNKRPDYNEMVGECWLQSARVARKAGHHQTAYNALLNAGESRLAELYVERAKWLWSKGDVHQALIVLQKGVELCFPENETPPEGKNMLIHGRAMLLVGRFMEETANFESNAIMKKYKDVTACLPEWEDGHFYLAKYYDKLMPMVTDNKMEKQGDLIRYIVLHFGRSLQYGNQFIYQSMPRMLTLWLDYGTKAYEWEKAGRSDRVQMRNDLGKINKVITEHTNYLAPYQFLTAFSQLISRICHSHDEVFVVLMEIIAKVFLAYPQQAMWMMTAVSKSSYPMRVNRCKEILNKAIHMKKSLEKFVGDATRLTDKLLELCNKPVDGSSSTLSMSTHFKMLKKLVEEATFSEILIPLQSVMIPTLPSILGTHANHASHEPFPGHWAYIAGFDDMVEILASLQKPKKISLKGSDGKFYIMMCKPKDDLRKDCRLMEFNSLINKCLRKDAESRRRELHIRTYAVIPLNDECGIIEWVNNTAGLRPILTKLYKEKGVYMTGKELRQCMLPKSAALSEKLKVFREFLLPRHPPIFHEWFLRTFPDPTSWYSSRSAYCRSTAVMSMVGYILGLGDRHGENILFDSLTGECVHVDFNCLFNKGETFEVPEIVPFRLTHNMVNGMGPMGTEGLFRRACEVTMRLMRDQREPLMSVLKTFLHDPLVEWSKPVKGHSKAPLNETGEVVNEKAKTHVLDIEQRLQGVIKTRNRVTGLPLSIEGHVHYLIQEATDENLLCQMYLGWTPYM
pIC50: −log10 of the molar value.
Class condition met: pIC50 at least 8. Class condition not met: pIC50 below 8.

Smiles repr | Discrete label
CC(=O)N1CCc2c(N3CCOC[C@H]3C)nc(-c3cccc4[nH]ccc34)nc2C12CCC2 | condition not met
CCC(=O)N1Cc2c(N3CCOC[C@H]3C)nc(-c3cccc4[nH]ccc34)nc2C1(C)C | condition met
COc1cccc(C(=O)N2Cc3c(N4CCOC[C@H]4C)nc(-c4cccc5[nH]ccc45)nc3C2(C)C)c1 | condition met
C[C@@H]1COCCN1c1nc(-c2cccc3[nH]ccc23)nc2c1CN(C(=O)c1cccc(S(C)(=O)=O)c1)C2(C)C | condition met
